- ASSAY TARGET: T1, mouse P2X7 (mouse, UniProt Q9Z1M0 1-595)
- T1 sequence: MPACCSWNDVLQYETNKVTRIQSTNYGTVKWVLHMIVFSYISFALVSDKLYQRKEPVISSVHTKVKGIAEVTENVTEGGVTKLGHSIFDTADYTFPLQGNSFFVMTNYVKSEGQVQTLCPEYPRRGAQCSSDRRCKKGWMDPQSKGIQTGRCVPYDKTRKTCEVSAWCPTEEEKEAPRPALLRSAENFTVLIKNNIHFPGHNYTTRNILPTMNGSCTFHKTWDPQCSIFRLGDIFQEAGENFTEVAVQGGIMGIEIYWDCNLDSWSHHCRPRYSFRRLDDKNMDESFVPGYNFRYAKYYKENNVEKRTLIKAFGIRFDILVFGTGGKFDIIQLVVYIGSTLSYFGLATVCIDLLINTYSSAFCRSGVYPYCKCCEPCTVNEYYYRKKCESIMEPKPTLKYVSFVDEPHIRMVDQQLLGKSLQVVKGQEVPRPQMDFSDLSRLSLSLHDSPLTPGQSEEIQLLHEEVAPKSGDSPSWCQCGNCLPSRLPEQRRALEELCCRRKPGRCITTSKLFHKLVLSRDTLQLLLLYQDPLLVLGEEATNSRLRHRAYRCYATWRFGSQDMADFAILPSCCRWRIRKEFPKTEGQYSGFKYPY
- ASSAY NOTES: cell-based or functional assay
MEASURED PARAMETER: IC50 (nM) against 100 uM ATP (CD62L shedding, Yac-1 cells)
Please state the figure in nM; there is no need to write the unit.

Here's what some known entries look like.
Lab book: IC50 (nM) against 100 uM ATP (CD62L shedding, Yac-1 cells) of P2X7PMP8G12 (VHH, family 5, 3; on phage or c-myc/His6-tagged in assays; also called 8012) VHH: KVQLVESGGGLVQAGGSLRLSCAASGSFFRVNNMAWYRQGPGKQRELVADITRGDRTNYADSVNGRFTISRDNVRNTVYLQMNGLKPEDTAVYYCYATIELGVLEPRDYWGQGTQVTVSS noted as 55

Lab book: IC50 (nM) against 100 uM ATP (CD62L shedding, Yac-1 cells) of P2X7PMP8C7 (VHH, family 7; on phage or c-myc/His6-tagged in assays) VHH: EMQLVESGGGLVQAGGSLRLSCAASGRTFSSLAMGWLRQAPGKEREFVSGISRGGTSTYYADSVKGRFTISRDNAKNTMYLQMNSLKPEDTAVYYCAGSPVLSIVLDTRGLEYWGQGTQVTVSS noted as 386

Lab book: IC50 (nM) against 100 uM ATP (CD62L shedding, Yac-1 cells) of P2X7PMP13G9 (VHH, family 23; on phage or c-myc/His6-tagged in assays) VHH: EVQLVESGGGLVQAGGSLRLSCVASGRTFSILTMGWFRQAPGKEREFVAAISGIGAIHYADSVKGRFTLSRDNARNTVSLHMNSLKPEDTAVYYCAAKANYESPSRETSYAYWGQGTQVTVSS noted as 35

Lab book: IC50 (nM) against 100 uM ATP (CD62L shedding, Yac-1 cells) of P2X7PMP8E7 (VHH, family 7; on phage or c-myc/His6-tagged in assays) VHH: EVQLVESGGGLVQAGGSLRLSCAASGRTFSSLAMGWLRQAPGKEREFVSGISRGGTSTYYADSVKGRFTISRDNAKNTMYLQMNSLKPEDTAVYYCAGSPVLSIVLDTRGLEYWGQGTQVTVSS noted as 576

Lab book: IC50 (nM) against 100 uM ATP (CD62L shedding, Yac-1 cells) of P2X7PMP13B5 (VHH, family 19; on phage or c-myc/His6-tagged in assays) VHH: EVQLVESGGGLVQAGDSLRLSCAASGRTFSSYAMGWFRQAPGKEREFVAAISLSGSMTYYADSMKGRFTISRDNAKNTVYLQMNSLKPEDTAVYYCAAEELGDGLGYLAYRYDYWGQGTQVTVSS noted as 436

More entries:
Lab book: IC50 (nM) against 100 uM ATP (CD62L shedding, Yac-1 cells) of P2X7PMP8F5 (VHH, family 5, 2; on phage or c-myc/His6-tagged in assays) VHH: EVQLVKSGGGLVQAGGSLRLSCAASGSFFRVNNMAWYRQAPGKQRELVADITRGDRTNYADSVNGRFTISRDNVRNTVYLQMNGLKPEDTAVYYCYARIELGPLVPRDYWGQGTQVTVSS noted as 350

Lab book: IC50 (nM) against 100 uM ATP (CD62L shedding, Yac-1 cells) of P2X7PMP7H6 (VHH, family 11; on phage or c-myc/His6-tagged in assays) VHH: EVQLVESGGGLVQPGGSLRLSCVVSGSMYRIDNMGWYRQAPGKQRELVATVTRGDITNYADSVKGRFTIGRDNAKNTVYLQMNSLKPADTAVYYCNIDSYIIGAGVRDYWGRGTQVTVSS noted as 123
